# Tested on: U2OS
# measurement description: cell viability relative to DMSO; higher = less toxic
# measurement setup: 72 h; 10000 nM
Recorded measurements of cell viability, one per entry

| compound | cell viability |
| --- | --- |
| Cc1ccc(/C(=C\CN2CCCC2)c2cccc(/C=C/C(=O)O)n2)cc1 | 103% |
| NCCCCCC(=O)O | 98.5% |
| CCN1CCN(Cc2ccc(C(=O)Nc3ccc(C)c(Oc4ccc5c(c4)CC(=O)N5)c3)cc2C(F)(F)F)CC1 | 79.8% |
| O=C(NCc1ccccc1)c1csc(Nc2ccncn2)n1 | 85.9% |
| COc1cc2c(Oc3ccc(NC(=O)C4(C(=O)Nc5ccc(F)cc5)CC4)cc3F)ccnc2cc1OCCCN1CCOCC1 | 0% |
| CCN(CC)CCOC(=O)C(c1ccccc1)C1CCCCC1 (stereo not drawn) | 102% |
| CC(C)c1ccc(NC(=O)Cn2cnc3c2c(=O)n(C)c(=O)n3C)cc1 | 98.2% |
| c1ccc(C[C@H](c2ccccc2)N2CCCCC2)cc1 (racemic) [1-(1,2-diphenylethyl)piperidine-(+/-)] | 105% |
| O=C(NO)c1ccc2[nH]c(=O)c(CCCc3ccccc3)nc2c1 | 66.8% |
| COc1cc2c(cc1OC)C(c1ccc(N)cc1)=NNC(=O)C2 | 87.1% |
| Nc1nccc2c1ncn2C1C=C(CO)C(O)C1O (stereo not drawn) | 57.8% |
| CC(C)N(CCNC(=O)CN1CCCC1=O)C(C)C | 105% |
| C[C@@H](O)[C@H]1C(=O)N2C(C(=O)O)=C(S[C@@H]3CN[C@H](CNS(N)(=O)=O)C3)[C@H](C)[C@H]12 | 94.7% |
| CNCc1ccc(-c2[nH]c3cc(F)cc4c3c2CCNC4=O)cc1 | 106% |
| C/C=C/c1cc(OC)c(OC)cc1OC | 100% |
| OCCN1CCN(CCCN2c3ccccc3Sc3ccc(C(F)(F)F)cc32)CC1 | 84.2% |
| C[C@@H](c1nc(-c2ccc(C#N)cc2)cs1)[C@](O)(Cn1cncn1)c1cc(F)ccc1F | 90.9% |
| COc1cc2c(Oc3ccc4[nH]c(C)cc4c3F)ccnc2cc1OCC1(N)CC1 | 54.7% |

====

# System: HepG2
# measurement description: cell viability relative to DMSO; higher = less toxic
# measurement setup: 72 h; 1000 nM
Recorded measurements of cell viability, one per entry

| molecule | uom | cell viability |
| --- | --- | --- |
| CNC[C@H](O)[C@@H](O)[C@H](O)[C@H](O)CO | % | 98.1 |
| COc1cc2c(cc1OC)C(c1ccc(N)cc1)=NNC(=O)C2 | % | 113 |
| OC[C@@H](O)[C@@H](O)CO | % | 97.1 |
| CCN(CC)C(=S)SSC(=S)N(CC)CC | % | 13.7 |
| CN1CCC(COc2cnc(-c3cccc(Cn4nc(-c5cccc(C#N)c5)ccc4=O)c3)nc2)CC1 | % | 95.2 |
| CCOC(=O)[C@@](C)(N)Cc1ccc(O)c(O)c1 [methyldopate] | % | 97.4 |
| O=[N+]([O-])c1ccc(O)c([N+](=O)[O-])c1 | % | 106 |
| CCCOc1ccc(Br)cc1-c1cc(-c2ccc(Cl)cc2)[nH]c1-c1ccncc1 | % | 101 |
| CCc1c2c(nc3ccc(O)cc13)-c1cc3c(c(=O)n1C2)COC(=O)[C@]3(O)CC | % | 5.6 |
| O=C1CCc2cc(OCCCCc3nnnn3C3CCCCC3)ccc2N1 | % | 99.4 |
| COc1cc(-n2c(=S)[nH]c3ccccc3c2=O)c(Cl)cc1Cl | % | 95.7 |
| Cc1ccc(Cl)cc1N(CC(=O)Nc1c(F)cccc1F)S(C)(=O)=O | % | 94.5 |
| CCN(CC)CCOC(=O)C1(c2ccc([N+](=O)[O-])cc2)CCCC1 | % | 108 |
| c1ccc(C[C@H](c2ccccc2)N2CCCCC2)cc1 (racemic) [1-(1,2-diphenylethyl)piperidine-(+/-)] | % | 100 |
| O=C(O)c1cnn(-c2nc3cc(OC(F)(F)F)c(Cl)cc3[nH]2)c1 | % | 104 |
| O=C(NO)c1ccc2[nH]c(=O)c(CCCc3ccccc3)nc2c1 | % | 94.7 |
| COc1ccc(CN2CCN(C(c3ccc(F)cc3)c3ccc(F)cc3)CC2)c(OC)c1OC | % | 93 |
| CC(C)c1ccccc1S(=O)(=O)c1cc(N)c2ncccc2c1[N+](=O)[O-] | % | 89.9 |
| C/C=C/c1cc(OC)c(OC)cc1OC | % | 93.3 |
| COC[C@H](C)Oc1cc(O[C@@H](C)Cc2ccccc2)cc(C(=O)Nc2ccc(C(=O)O)cn2)c1 | % | 120 |
| CC(=O)OCC(=O)[C@H]1CC[C@H]2[C@@H]3CCC4=CC(=O)CC[C@]4(C)[C@H]3CC[C@]12C [deoxycorticosterone-acetate] | % | 91.5 |
| NC1CCN(c2cccc(Cl)n2)CC1 | % | 111 |
| CC(C)=CCC/C(C)=C/CC/C(C)=C/CC[C@]1(C)CCc2cc(O)cc(C)c2O1 | % | 91 |
| COc1ccccc1CC(=N)N1C[C@@H]2C(=O)CCC(c3ccccc3)(c3ccccc3)[C@@H]2C1 | % | 106 |
| O=C1C2C=Nc3ccccc3C2=NN1c1ccc(Cl)cc1 (stereo not given) | % | 94.1 |
| OC(c1ccc(-c2ccc(CN3CCN(Cc4ccncc4)CC3)cc2)c(F)c1)(C(F)(F)F)C(F)(F)F | % | 95.4 |
| N=C(N)Nc1ccc2[nH]c3c(c2c1)C[C@@]1(O)[C@H]2Cc4ccc(O)c5c4[C@@]1(CCN2CC1CC1)[C@H]3O5 | % | 98.2 |
| CC(C)Oc1cccc(-n2c(CCc3c[nH]c4ccc(Br)cc34)nc3ccccc3c2=O)c1 | % | 85.9 |
| O=C1NCCc2[nH]c(-c3ccncc3)cc21 | % | 33.1 |
| CC[C@H](C)[C@@H]([C@@H](CC(=O)N1CCC[C@H]1[C@H](OC)[C@@H](C)C(=O)N[C@@H](Cc1ccccc1)c1nccs1)OC)N(C)C(=O)[C@@H](NC(=O)[C@H](C(C)C)N(C)C)C(C)C | % | 29.4 |
| Cn1nccc1Nc1nccc(-c2ccn([C@H](CO)c3ccc(Cl)c(F)c3)c(=O)c2)n1 | % | 38.2 |
| CO[C@@]1(NC(=O)C2SC(=C(C(N)=O)C(=O)O)S2)C(=O)N2C(C(=O)O)=C(CSc3nnnn3C)CS[C@@H]21 (stereo not given in full) | % | 100 |
| C[C@@H](O)[C@H]1C(=O)N2C(C(=O)O)=C(S[C@@H]3CN[C@H](CNS(N)(=O)=O)C3)[C@H](C)[C@H]12 | % | 99.9 |
| Nc1nc(CC(=O)Nc2ccc(CCNC[C@H](O)c3ccccc3)cc2)cs1 | % | 93.2 |
| CSc1ccc([C@H]2CN3CCC[C@H]3c3ccccc32)cc1 (racemic) [McN-5652-(+/-)] | % | 90.3 |

====

# Tested on: U2OS
# measurement description: drug sensitivity score (DSS) for viability; higher = more toxic; extreme values may be limits of the assay
# measurement setup: 72 h
observed property: drug sensitivity score

| molecule | assay result |
| --- | --- |
| Nc1ccc([As](=O)(O)O)cc1 [arsanilic-acid] | 0 |
| Cc1cc(NCCO)nc(-c2ccc(Br)cc2)n1 | 0 |
| Cc1ccnc2c1CCCC2C(N)=S (stereo not drawn) [isotiquimide] | 0 |
| CN(C)C(=O)COC(=O)Cc1ccc(OC(=O)c2ccc(NC(=N)N)cc2)cc1 [camostat-mesilate] | 0 |
| C[C@@H](c1nc(-c2ccc(C#N)cc2)cs1)[C@](O)(Cn1cncn1)c1cc(F)ccc1F [isavuconazole] | 0 |
| CCCCN(CC)c1nc(C)nc2c1c(C)c(C)n2-c1c(C)cc(C)cc1C [antalarmin] | 0 |
| COc1ccc2nc3cc(Cl)ccc3c(Nc3cc(CN4CCCC4)c(O)c(CN4CCCC4)c3)c2n1 [pyronaridine] | 3.6 |
| CO[C@H]1/C=C/O[C@@]2(C)Oc3c(C)c(O)c4c(O)c(cc(O)c4c3C2=O)NC(=O)/C(C)=C\C=C\[C@H](C)[C@H](O)[C@@H](C)[C@@H](O)[C@@H](C)[C@H](OC(C)=O)[C@@H]1C [rifamycin-sv] | 0 |

====

Recorded measurements of cell viability, one per entry
# Test system: Calu-3
# measurement description: cell viability relative to DMSO; higher = less toxic
# measurement setup: 72 h; 10 nM
observed property: cell viability (%)

| compound | assay result |
| --- | --- |
| CNC(=O)c1cccc2cc(Oc3ccnc4cc(OCC5(N)CC5)c(OC)cc34)ccc12 | 93 |
| O=c1ccc2ccc(OCCCCN3CCN(c4cccc5sccc45)CC3)cc2[nH]1 | 85 |
| O=C(NCCN1CCOCC1)c1ccc(Cl)cc1 [moclobemide] | 103 |
| COc1cc2ncnc(Nc3cccc(Cl)c3F)c2cc1OC(=O)N1CCN(C)C[C@H]1C | 93.6 |
| Cc1c(Cn2c(C)nc3c(C(=O)O)cc(N4CCOCC4)cc32)cccc1C(F)(F)F | 101 |
| Nc1n[nH]c2nc3ccccc3nc12 | 102 |
| CCOC(=O)CNC(=O)[C@@H]1CCCN1C(=O)Cc1ccccc1 | 98.4 |
| COc1cc2ncnc(Sc3nnc(C)s3)c2cc1OC | 99.2 |
| CCCCN(CC)c1nc(C)nc2c1c(C)c(C)n2-c1c(C)cc(C)cc1C | 94.4 |
